Field: viability at 24 h, 10 µM. Provide a value for each of the compounds that follow.
Assay: Cell Titer Blue viability (cytotoxicity) assay
Type: cell-based, human
Conditions: human
Give bare numbers, in %.

O=C(Nc1cc(C(F)(F)F)ccc1C(F)(F)F)c1ccc(Sc2ccc(O)cc2)cc1 [Compound 11d]
53.7

Could you report viability at 24 h, 10 µM for every entry in the following list?
1. O=C(Nc1cccc(S(F)(F)(F)(F)F)c1)c1ccc(S(=O)(=O)c2ccc(O)cc2)cc1 [Compound 13f]
2. O=C(Nc1cccc(C(F)(F)F)c1)c1ccc(Sc2ccc(O)cc2)cc1 [Compound 11h]

Data returned:
1: 76.2; 2: 85.6

Here are 5 compounds. What values of viability at 24 h, 10 µM were reported for them?
1. O=C(Nc1cc(C(F)(F)F)cc(C(F)(F)F)c1)c1ccc(Sc2ccc(O)cc2)cc1 [Compound 11c]
2. O=C(Nc1ccc(S(F)(F)(F)(F)F)cc1)c1ccc([S+]([O-])c2ccc(O)cc2)cc1 (centres unmarked) [Compound 14e]
3. O=C(Nc1ccccc1C(F)(F)F)c1ccc(S(=O)(=O)c2ccc(O)cc2)cc1 [Compound 13i]
4. O=C(Nc1cccc(C(F)(F)F)c1)c1ccc(S(=O)(=O)c2cccc(C(F)(F)F)c2)cc1 [Compound 15h]
5. O=C(Nc1cccc(S(F)(F)(F)(F)F)c1)c1ccc(Sc2ccc(O)cc2)cc1 [Compound 11f]

Data returned:
1: 64.2; 2: 59.7; 3: 129; 4: 83.9; 5: 60.5

----------
Assay: Cell Titer Blue viability (cytotoxicity) assay
Format: cell-based, human
Conditions: human; 10 µM, 24 h, HEK293; mean % of cell viability relative to control; read-out: Cell Viability Mean (%)
Readout type: viability at 24 h, 10 µM (%)
Answers are plain numbers, in %.

I would be grateful if you could provide viability at 24 h, 10 µM for each of the following entries.
1. N#Cc1ccc(NC(=O)c2ccc(Sc3ccc(O)cc3)cc2)cc1C(F)(F)F [Compound 11a]
2. N#Cc1ccc(NC(=O)c2ccc(Sc3cccc(C(F)(F)F)c3)cc2)cc1C(F)(F)F [Compound 12a]
3. N#Cc1ccc(NC(=O)c2ccc(S(=O)(=O)c3cccc(C(F)(F)F)c3)cc2)cc1C(F)(F)F [Compound 15a]
4. N#Cc1ccc(NC(=O)c2ccc(S(=O)(=O)c3ccc(O)cc3)cc2)cc1C(F)(F)F [Compound 13a]

Data returned:
1: 65.7; 2: 60; 3: 79; 4: 73

----------
Test system: DU-145
Experiment: 2D monolayer antiproliferative assay (propidium iodide), DU-145
Details: Homo sapiens, DU-145, 96 h, read-out: Absolute IC50 DU-145
Readout type: IC50 (µM)
One number for each entry, in µM.

O=C(Nc1cccc(C(F)(F)F)c1)c1ccc(Sc2ccc(O)cc2)cc1 [Compound 11h]
5.95
O=C(Nc1ccc(S(F)(F)(F)(F)F)cc1)c1ccc([S+]([O-])c2ccc(O)cc2)cc1 (stereo not shown) [Compound 14e]
11
O=C(Nc1cccc(C(F)(F)F)c1)c1ccc(Sc2cccc(C(F)(F)F)c2)cc1 [Compound 12h]
9.89

Would you be so kind as to report IC50 for each listed record?
1. O=C(Nc1cccc(C(F)(F)F)c1)c1ccc(S(=O)(=O)c2ccc(O)cc2)cc1 [Compound 13h]
2. O=C(Nc1ccc([N+](=O)[O-])c(C(F)(F)F)c1)c1ccc(S(=O)(=O)c2ccc(O)cc2)cc1 [Compound 13b]
3. O=C(Nc1ccccc1C(F)(F)F)c1ccc(Sc2ccc(O)cc2)cc1 [Compound 11i]

Data returned:
17.7
8.85
35.7

Field: IC50. Fill in for each record below.
1. O=C(Nc1ccc(C(F)(F)F)cc1)c1ccc(S(=O)(=O)c2ccc(O)cc2)cc1 [Compound 13g]
2. N#Cc1ccc(NC(=O)c2ccc(S(=O)(=O)c3ccc(O)cc3)cc2)cc1C(F)(F)F [Compound 13a]
3. O=C(Nc1cc(C(F)(F)F)ccc1C(F)(F)F)c1ccc(S(=O)(=O)c2ccc(O)cc2)cc1 [Compound 13d]
4. O=C(Nc1ccc(C(F)(F)F)cc1)c1ccc(Sc2ccc(O)cc2)cc1 [Compound 11g]
5. O=C(Nc1ccc(S(F)(F)(F)(F)F)cc1)c1ccc(S(=O)(=O)c2ccc(O)cc2)cc1 [Compound 13e]

Data returned:
1. 30.7
2. 12.6
3. 27.8
4. 8.55
5. 10.8
